Quick list: pKi per entry.
target: Mu-type opioid receptor (Mus musculus)
pKi: −log10 of the molar value.
quantity-name: pKi

- item-smiles: "CN1CCN(c2nnc(-c3ccc(C(C)(C)C)cc3)n2-c2cccc(O)c2)CC1"
  result: "< 5.00"
- item-smiles: "CC(C)(C)c1ccc(-c2nncn2-c2cccc(O)c2)cc1"
  result: "< 5.00"
- item-smiles: "CN(C)c1nnc(-c2ccc(C(C)(C)C)cc2)n1-c1ccc(O)cc1"
  result: "< 5.00"
- item-smiles: "CN(C)c1nnc(-c2ccc(-c3ccccc3)cc2)n1-c1cccc(O)c1"
  result: "< 5.00"
- item-smiles: "CN(C)c1nnc(-c2ccc3ccccc3c2)n1-c1cccc(O)c1"
  result: "< 5.00"
- item-smiles: "CN(C)c1nnc(-c2ccc(C(C)(C)C)cc2)n1-c1cccc(O)c1"
  result: 5.40
- item-smiles: "COc1cccc(-n2cnnc2-c2ccc(C(C)(C)C)cc2)c1"
  result: "< 5.00"
- item-smiles: "CN(C)c1nnc(-c2cccc(C(C)(C)C)c2)n1-c1cccc(O)c1"
  result: "< 5.00"

---

target: Kappa-type opioid receptor (Rattus norvegicus) (UniProt P34975); experiment: Inhibition of (-)-[9-3H]bremazocine binding to kappa opioid receptor at 10 uM
Sequence (P34975 whole entry, looked up): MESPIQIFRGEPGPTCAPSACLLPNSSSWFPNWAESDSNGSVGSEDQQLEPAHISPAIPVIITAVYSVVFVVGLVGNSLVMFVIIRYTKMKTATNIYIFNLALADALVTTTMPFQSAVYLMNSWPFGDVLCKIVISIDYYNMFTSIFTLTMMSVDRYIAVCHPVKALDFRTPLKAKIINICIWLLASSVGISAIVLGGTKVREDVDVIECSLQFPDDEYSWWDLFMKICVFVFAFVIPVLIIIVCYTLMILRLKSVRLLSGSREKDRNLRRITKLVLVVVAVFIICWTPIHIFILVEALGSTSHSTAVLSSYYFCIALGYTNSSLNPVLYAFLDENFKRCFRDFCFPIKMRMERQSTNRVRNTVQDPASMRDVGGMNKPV

- item-smiles: "CN(C)c1nnc(-c2ccc(C(C)(C)C)cc2)n1-c1cccc(O)c1"
  inhibition: "6%"
- item-smiles: "Oc1cccc(-n2cnnc2-c2ccc3ccccc3c2)c1"
  inhibition: "27%"
- item-smiles: "CN1CCN(c2nnc(-c3ccc(C(C)(C)C)cc3)n2-c2cccc(O)c2)CC1"
  inhibition: "12%"
- item-smiles: "CN(C)c1nnc(-c2cccc(C(C)(C)C)c2)n1-c1cccc(O)c1"
  inhibition: "6%"
- item-smiles: "COc1cccc(-n2cnnc2-c2ccc(C(C)(C)C)cc2)c1"
  inhibition: "8%"
- item-smiles: "CC(C)(C)c1cccc(-c2nncn2-c2cccc(O)c2)c1"
  inhibition: "66%"

---

target: Delta-type opioid receptor (Mus musculus); test: Inhibition of (-)-[9-3H]bremazocine binding to delta opioid receptor at 10 uM
Quick list: inhibition per entry.

- item-smiles: "CN(C)c1nnc(-c2ccc(C(C)(C)C)cc2)n1-c1ccc(O)cc1"
  inhibition [%]: 27
- item-smiles: "CN(C)Cc1nnc(-c2cccc(C(C)(C)C)c2)n1-c1cccc(O)c1"
  inhibition [%]: 65
- item-smiles: "CN(C)c1nnc(-c2cccc(-c3ccccc3)c2)n1-c1cccc(O)c1"
  inhibition [%]: 86
- item-smiles: "CN(C)c1nnc(-c2ccc(C(C)(C)C)cc2)n1-c1cccc(O)c1"
  inhibition [%]: 94
- item-smiles: "CN1CCN(c2nnc(-c3ccc(C(C)(C)C)cc3)n2-c2cccc(O)c2)CC1"
  inhibition [%]: 18
- item-smiles: "CN(C)CCc1nnc(-c2ccc(C(C)(C)C)cc2)n1-c1cccc(O)c1"
  inhibition [%]: 90
- item-smiles: "CC(C)(C)c1cccc(-c2nncn2-c2cccc(O)c2)c1"
  inhibition [%]: 91
- item-smiles: "Oc1cccc(-n2cnnc2-c2cccc(-c3ccccc3)c2)c1"
  inhibition [%]: 84
- item-smiles: "CN(C)c1nnc(-c2cccc(C(C)(C)C)c2)n1-c1cccc(O)c1"
  inhibition [%]: 76
- item-smiles: "CN(C)c1nnc(-c2ccc(-c3ccccc3)cc2)n1-c1cccc(O)c1"
  inhibition [%]: 82
- item-smiles: "Oc1cccc(-n2cnnc2-c2ccc3ccccc3c2)c1"
  inhibition [%]: 68

The values you see were collected from ChEMBL document CHEMBL1138930.
